- Test system: MALME-3M melanoma
- measurement-notes: NCI tumour cell line growth inhibition, 48 h; in the data active means GI50 below about 0.43 µM; inactive means the rest
Labels: true (1) (active), false (0) (inactive)

> print(dat)
                                   compound      class
1  C=CC(=O)N1C[C@H](COc2nc(Nc3cnn(C)c3)nc3[nH]cc(Cl)c23)[C@@H](OC)C1  false (0)
2       CN(C)CCCNCc1ccc(-c2ccc(F)c(Cl)c2)o1  false (0)
3  O=S(=O)(Nc1ccc(Cl)cc1)c1ccc(-c2cnc(C3CC3)o2)cc1  false (0)
4  Cc1nn(CCO)c(C)c1N=[N+]([O-])c1c(C)nn(CCO)c1C  false (0)
5  CC(C)=CC(=O)OC1C(CO)OC(Oc2cc(O)c3c(=O)cc(-c4ccc(O)c(O)c4)oc3c2)C(OC2OC(C)C(O)C(O)C2O)C1O (configuration not stated)  false (0)
6  NCCN.O=C([O-])C(=O)[O-].O=C([O-])C(=O)[O-].[Co+3].[K+]  false (0)
7  O=C(Nc1ccc([As]=[As]c2ccc(NC(=O)c3ccccc3)cc2)cc1)c1ccccc1 (configuration not stated)   true (1)

* * *

- Tested on: OVCAR-8 ovarian
- measurement-notes: NCI tumour cell line growth inhibition, 48 h
observable: TGI

> print(dat)
                                   compound  observable    result
1  O=c1cc(NCC(O)CN2CCOCC2)n(Cc2ccccc2)c(=O)n1Cc1ccccc1 (stereo not drawn)         TGI  > 100 µM
2  CC(=O)OC1Oc2ccccc2-c2oc(=O)c(-c3ccc(F)cc3)cc21 (stereo not drawn)         TGI  > 100 µM
3  COc1ccc2c(c1)[n+]([O-])c(C#N)c(NC(=O)c1cccs1)[n+]2[O-]         TGI  > 100 µM

* * *

- Tested on: SN12C renal
- measurement-notes: NCI tumour cell line growth inhibition, 48 h
Where a SMILES comes first, the peptide text is derived from it. [ ]: non-standard residue; d: D form. Ac5c = NC1(C(=O)O)CCCC1
Measured TGI, listed per entry for reference.
observable: TGI

molecule	tgt	result
C=C1C(=O)O[C@H]2[C@H]1CC/C(COC(=O)CCSSCCC(=O)OC/C1=C/CC[C@@]3(C)O[C@H]3[C@H]3OC(=O)C(=C)[C@@H]3CC1)=C\CC[C@@]1(C)O[C@@H]21	SN12C renal	2.58 µM
O=Cc1cn(Cc2ccc(Cl)cc2)c2ccccc12	SN12C renal	> 100 µM
O=C(CCc1ccc(O)c(O)c1)OCCc1ccccc1	SN12C renal	> 100 µM
COC(=O)C1(NC(=O)C(C)NC(=O)C(CCCCN)NC(=O)C(CC(C)C)NC(C)=O)CCCC1 (centres undefined) (Ac-LKA[Ac5c]-OMe; configuration not given here)	SN12C renal	> 100 µM
COC(=O)C1Cc2c([nH]c3ccccc23)C(c2ccccc2O)N1 (centres undefined)	SN12C renal	> 100 µM
O=C(Nc1ccc([As]=[As]c2ccc(NC(=O)c3ccccc3)cc2)cc1)c1ccccc1 (centres undefined)	SN12C renal	1.98 µM
CCOC(=O)/C(=C\NCc1ccc2c(c1)OCO2)c1nc2ccccc2[nH]1	SN12C renal	> 100 µM
O=C(O)CSc1ccc(N=C=S)cc1	SN12C renal	> 100 µM
CCOc1ccc2nc(NC(=O)C(=O)C(C#N)CC(C)(C)C=O)sc2c1 (centres undefined)	SN12C renal	> 100 µM
CCOC(=O)c1nnn(-c2no[n+]([O-])c2-c2ccc(OC)cc2)c1COc1cccc2cccnc12	SN12C renal	3.55 µM
Cc1ccc(S(=O)(=O)NC(C(=O)O)C(C)C)cc1 (centres undefined)	SN12C renal	> 100 µM
CN1c2ccccc2NC(CC(=O)O)C2CC=CN21 (centres undefined)	SN12C renal	> 100 µM
CCOC(=O)C1=C(OC(OCC)C(C)[Se]c2ccccc2)CCC1 (centres undefined)	SN12C renal	36.5 µM
Cc1nc(N)nn1C1OCC(O)C(O)C1O (centres undefined)	SN12C renal	> 100 µM
CCCNc1[nH]c(C(=O)c2ccccc2)c(N)c1C(=S)Nc1ccccc1	SN12C renal	> 100 µM
COC(=O)C1=C(C(=O)OC)C2(CCCCCC2=O)OC1=O (centres undefined)	SN12C renal	> 100 µM
Cc1ccccc1N(CC(=O)O)S(=O)(=O)c1ccccc1	SN12C renal	> 100 µM
COC(=O)C1CCC2(C)[C@H](CCC3O[C@]32C)[C@@]1(C)CC(=O)c1ccoc1 (some centres undefined)	SN12C renal	> 100 µM
Cn1cc(-c2ccc(-c3cn(C)c4ccc(Cl)cc34)[nH]2)c2cc(Cl)ccc21	SN12C renal	5.72 µM
CC1=NN(C(=O)c2ccc(Cl)cc2)C(=O)C1N=Nc1ccc(S(=O)(=O)Nc2ncccn2)cc1 (centres undefined)	SN12C renal	> 100 µM
N#CC1(Cc2ccccc2[N+](=O)[O-])c2ccccc2C2C(N1C(=O)c1ccccc1)C2(Cl)Cl (centres undefined)	SN12C renal	> 100 µM
ClC1=C(Cl)C(Cl)(Cl)SS1	SN12C renal	> 10 µM
C/C(=N\NC(=O)c1ccncc1)c1cccc(F)c1	SN12C renal	> 10 µM
CCN(CC)CCCNc1[nH]ncc2cc3c(nc4ccccc43)c(C)c12	SN12C renal	19.9 µM

* * *

- Test system: HCT-116 colon
- measurement-notes: NCI tumour cell line growth inhibition, 48 h
Measured TGI, listed per entry for reference.
observable: TGI

compound	observable	result
O=c1ccc2nc(C(F)(F)F)nn(-c3ccccc3)c-2c1	TGI	3.15 µM
CCOC(=O)c1nnn(-c2no[n+]([O-])c2-c2ccc(OC)cc2)c1COc1cccc2cccnc12	TGI	3.59 µM
CC(C)CSCC1OC(n2cnc3c(N)nccc32)C(O)C1O (configuration not stated)	TGI	> 100 µM
C/C(=N/OC(=O)c1cccc2c(=O)c3ccccc3[nH]c12)[C@H]1CC[C@H]2[C@@H]3CCC4=C/C(=N/OC(=O)c5cccc6c(=O)c7ccccc7[nH]c56)CC[C@]4(C)[C@H]3CC[C@]12C	TGI	25 µM
O=C1C(Cl)N(c2ccc(Cl)cc2Cl)C1c1c[nH]c2ccccc12 (configuration not stated)	TGI	> 100 µM
O=c1[nH]c2cc(F)c(F)cc2nc1Cc1ccccc1	TGI	> 100 µM
ClC1=C(Cl)C(Cl)(Cl)SS1	TGI	> 6.72 µM

* * *

- System: DLD-1 colon
- measurement-notes: NCI tumour cell line growth inhibition, 48 h
Measured TGI, listed per entry for reference.
observable: TGI

> print(dat)
                               given.smiles    result
1              CO/C(=N\N=Cc1ccccc1)c1ccncc1  > 100 µM
2      Cc1nc2c(o1)C(=O)c1ccccc1C2=Nc1ccccc1   29.2 µM
3  O=C(c1cccs1)N(C(=S)N1CCN(c2ccccc2)CC1)C1CCCCC1  > 100 µM

* * *

- Tested on: OVCAR-8 ovarian
- measurement-notes: NCI tumour cell line growth inhibition, 48 h
observable: TGI

> print(dat)
                               given.smiles    result
1                        C=C1CCc2ccccc2C1=O  > 100 µM
2  CC(C)(C)c1cc(OCc2nnc3sc(-c4ccc(Cl)cc4)nn23)c(Cl)cc1OCc1nnc2sc(-c3ccc(Cl)cc3)nn12   19.8 µM
3  CC1=C(c2cc(C(=O)Nc3cc(C)ccc3C)nc(N)n2)Sc2ccccc2N1  > 100 µM

* * *

- System: RPMI-8226 leukemia
- measurement-notes: NCI tumour cell line growth inhibition, 48 h
observable: GI50

> print(dat)
                                   compound                 tgt    result
1  Cc1cc(N(CCNc2ccnc3cc(Cl)ccc23)Cc2cccs2)nc(Cl)n1  RPMI-8226 leukemia   1.97 µM
2  CCOC(=O)/C=C1/SC(N2CCCCC2)C(=O)N1CC (stereo not drawn)  RPMI-8226 leukemia  > 100 µM
3  NCCN.O=C([O-])C(=O)[O-].O=C([O-])C(=O)[O-].[Co+3].[K+]  RPMI-8226 leukemia  > 100 µM

* * *

- Test system: HCT-116 colon
- measurement-notes: NCI tumour cell line growth inhibition, 48 h
Measured TGI, listed per entry for reference.
observable: TGI

> print(dat)
                                    compound    result
 1  COC(=O)C(Cc1ccc2c(c1)CCCC2)Cc1cc2c(cc1C(O)OC)CCC2 (centres undefined)  > 100 µM
 2  CC(C)C[C@H](NC(=O)Cn1ccc(Nc2ccccc2)cc1=O)B(O)O   5.02 µM
 3           CCOP(=O)(/C=C/n1ccc(N)nc1=O)OCC  > 100 µM
 4                CC1(C)CN=C(Nc2ccc(F)cc2)S1  > 100 µM
 5  CCC(=O)OC1CCC2C3CCC(=O)OC3C(C)(CCC(=O)O)CC12C (centres undefined)  > 100 µM
 6       COc1cccc(N=Cc2cc(OC)c(OC)c(OC)c2)c1  > 100 µM
 7       CC1(C)NC(C)(C)/C(=N\O)C(=NO)/C1=N/O  > 100 µM
 8  CC[C@@]1(O)C(=O)OCc2c1cc1n(c2=O)Cc2c-1nc1ccccc1c2Cl   1.11 µM
 9  Cc1cc(C2CC(O)C(CO)O2)c(Cl)cc1Cl (centres undefined)  > 100 µM
10  CC(=O)OC1Oc2ccccc2-c2oc(=O)c(-c3ccc(F)cc3)cc21 (centres undefined)  > 100 µM
11  CN(C)CCCn1c2c(c3ccc(-c4ccn[nH]4)cc3c1=O)C(=O)c1ccccc1-2   2.23 µM
12  Nc1nc(N)c2c(Cl)c(CNc3ccc(C(=O)NC(CC(=O)O)C(=O)O)cc3)ccc2n1 (centres undefined)  > 100 µM
13  COc1ccc2c(c1)NC(=O)CN2c1nc(NC2CC2)nc2ccccc12   13.3 µM
14  COc1ccc(Nc2nc3c(N)cc(C(F)(F)F)cc3nc2-c2ccccc2)cc1OC  > 100 µM
